Recorded AUC(0-t) values for a group of compounds are listed next.
test: Mouse PK test; assay type: in vivo; settings: plasma, male ICR mice, iv, 1 mg/kg (calculated in free form)
Could you give me the number in ng·h/mL? Just the number is fine.

Sample answers from the record:
CC(C)C[C@@H](NC(=O)[C@@H](Cc1ccccc1)NC(=O)[C@H](N)Cc1ccccc1)C(=O)N[C@H](CCCCN)C(=O)N1CCC(N)(C(=O)O)CC1 = 1120
CC(C)C[C@@H](NC(=O)[C@@H](Cc1ccccc1)NC(=O)[C@H](N)Cc1ccccc1)C(=O)N[C@H](CCCCN)C(=O)N1CCC2(CC1)CN(C(=O)[C@@H](C)N)C2 = 2240

Entry CC(=O)N1CC2(CCN(C(=O)[C@@H](CCCCN)NC(=O)[C@@H](CC(C)C)NC(=O)[C@@H](Cc3ccccc3)NC(=O)[C@H](N)Cc3ccccc3)CC2)C1 : reported AUC(0-t) = ? 1220

###

In this section, each of the molecules is paired with its reported AUC(0-t).
assay: Rat PK test; assay type: in vivo; details: rat, plasma; male SD rats, iv, 1 mg/kg (calculated in free form)
Provide a numeric answer, followed by its unit.

CC(C)C[C@@H](NC(=O)[C@@H](Cc1ccccc1)NC(=O)[C@H](N)Cc1ccccc1)C(=O)N[C@H](CCCCN)C(=O)N1CCC(N)(C(=O)O)CC1 [CR-845] = 1960 ng·h/mL

Let's switch to this molecule now.
Which AUC(0-t) is reported for this molecule? CC(C)C[C@@H](NC(=O)[C@@H](Cc1ccccc1)NC(=O)[C@H](N)Cc1ccccc1)C(=O)N[C@H](CCCCN)C(=O)N1CCC2(CC1)CC(N)(C(=O)O)C2 [Compound 2, tri-trifluoroacetic acid] 2660 ng·h/mL

###

assay: Rat PK test; assay type: in vivo; settings: rat, plasma; male SD rats, iv, 1 mg/kg (calculated in free form); read-out: Vdss
Recorded metric: Vd (L/kg)
Write the number in L/kg without appending the unit.

CC(C)C[C@@H](NC(=O)[C@@H](Cc1ccccc1)NC(=O)[C@H](N)Cc1ccccc1)C(=O)N[C@H](CCCCN)C(=O)N1CCC(N)(C(=O)O)CC1 = 1.56

Query molecule follows.
Can you look up the measured Vd of CC(C)C[C@@H](NC(=O)[C@@H](Cc1ccccc1)NC(=O)[C@H](N)Cc1ccccc1)C(=O)N[C@H](CCCCN)C(=O)N1CCC2(CC1)CC(N)(C(=O)O)C2 for me? 1.47

###

assay: Rat PK test; format: in vivo; settings: rat, plasma; male SD rats, iv, 1 mg/kg (calculated in free form)
Recorded metric: half-life

CC(C)C[C@@H](NC(=O)[C@@H](Cc1ccccc1)NC(=O)[C@H](N)Cc1ccccc1)C(=O)N[C@H](CCCCN)C(=O)N1CCC2(CC1)CC(N)(C(=O)O)C2 [Compound 2, tri-trifluoroacetic acid] = 4.22 h

Please turn your attention to the following entry.
Return reported half-life; argument: CC(C)C[C@@H](NC(=O)[C@@H](Cc1ccccc1)NC(=O)[C@H](N)Cc1ccccc1)C(=O)N[C@H](CCCCN)C(=O)N1CCC(N)(C(=O)O)CC1 [CR-845] 3.9 h

###

biological target: human κ-opioid receptor (Homo sapiens, UniProt P41145); assay: Agonist activity on human κ-opioid receptors (inhibition of forskolin-stimulated cAMP release, TR-FRET); details: OPRK1 cells (DiscoveRx)
Sequence (P41145 whole entry): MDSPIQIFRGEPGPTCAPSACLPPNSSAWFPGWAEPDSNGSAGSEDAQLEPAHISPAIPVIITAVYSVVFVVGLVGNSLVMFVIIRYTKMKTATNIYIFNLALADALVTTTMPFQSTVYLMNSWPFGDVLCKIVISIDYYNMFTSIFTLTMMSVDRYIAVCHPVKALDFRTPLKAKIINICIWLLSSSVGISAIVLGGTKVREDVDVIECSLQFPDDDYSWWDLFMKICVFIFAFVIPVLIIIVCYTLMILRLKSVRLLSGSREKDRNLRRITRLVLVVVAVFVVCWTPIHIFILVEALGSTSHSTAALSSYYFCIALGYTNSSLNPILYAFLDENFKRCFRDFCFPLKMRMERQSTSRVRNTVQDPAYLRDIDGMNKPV
Each item that follows carries a reported pEC50.
Quick note: pEC50 values are minus log10 of concentrations in mol/L.

Example entries and their recorded answers appear below.
CC(C)C[C@@H](NC(=O)[C@@H](Cc1ccccc1)NC(=O)[C@H](N)Cc1ccccc1)C(=O)N[C@H](CCCCN)C(=O)N1CC2(CCN(C(=O)[C@@H](C)N)CC2)C1 = 10.40
CC(C)C[C@@H](NC(=O)[C@@H](Cc1ccccc1)NC(=O)[C@H](N)Cc1ccccc1)C(=O)N[C@H](CCCCN)C(=O)N1CC2(CCN(C3COC3)CC2)C1 = 10.30
CC(C)C[C@@H](NC(=O)[C@@H](Cc1ccccc1)NC(=O)[C@H](N)Cc1ccccc1)C(=O)N[C@H](CCCCN)C(=O)N1CC2(CCN(S(C)(=O)=O)CC2)C1 = 10.17
CNC(=O)N1CCC2(CCN(C(=O)[C@@H](CCCCN)NC(=O)[C@@H](CC(C)C)NC(=O)[C@@H](Cc3ccccc3)NC(=O)[C@H](N)Cc3ccccc3)C2)C1 (stereo partly drawn) = 10.95
CC(C)C[C@@H](NC(=O)[C@@H](Cc1ccccc1)NC(=O)[C@H](N)Cc1ccccc1)C(=O)N[C@H](CCCCN)C(=O)N1CCC2(CC1)CN(C(=O)N1CCCC1)C2 = 11.17

Given the entry CNC(=O)N1CC2(CCN(C(=O)[C@@H](CCCCN)NC(=O)[C@@H](CC(C)C)NC(=O)[C@@H](Cc3ccccc3)NC(=O)[C@H](N)Cc3ccccc3)CC2)C1 , report its measured pEC50. 10.93

Can you share its pEC50? I mean this molecule: CC(C)C[C@@H](NC(=O)[C@@H](Cc1ccccc1)NC(=O)[C@H](N)Cc1ccccc1)C(=O)N[C@H](CCCCN)C(=O)N1CCC2(CC1)CC(N)(C(=O)O)C2 9.39

// query pEC50 value for entry CC(=O)N1CCC2(CC1)CN(C(=O)[C@@H](CCCCN)NC(=O)[C@@H](CC(C)C)NC(=O)[C@@H](Cc1ccccc1)NC(=O)[C@H](N)Cc1ccccc1)C2 10.07

Given the molecule CC(=O)N1CC2(CCN(C(=O)[C@@H](CCCCN)NC(=O)[C@@H](CC(C)C)NC(=O)[C@@H](Cc3ccccc3)NC(=O)[C@H](N)Cc3ccccc3)CC2)C1 , what is its reported pEC50? 10.95

###

assay: Mouse PK test; assay type: in vivo; details: plasma, male ICR mice, iv, 1 mg/kg (calculated in free form)
Recorded metric: half-life (h)
Report only the number, with the unit h understood.

Reported half-life for CC(=O)N1CC2(CCN(C(=O)[C@@H](CCCCN)NC(=O)[C@@H](CC(C)C)NC(=O)[C@@H](Cc3ccccc3)NC(=O)[C@H](N)Cc3ccccc3)CC2)C1 [Compound 8, di-trifluoroacetic acid] : what is it? 5.77

Look at this molecule and give its reported half-life. CC(C)C[C@@H](NC(=O)[C@@H](Cc1ccccc1)NC(=O)[C@H](N)Cc1ccccc1)C(=O)N[C@H](CCCCN)C(=O)N1CCC2(CC1)CN(C(=O)[C@@H](C)N)C2 [Compound 17, tri-trifluoroacetic acid] 3.88

Please give the measured half-life for this molecule: CC(C)C[C@@H](NC(=O)[C@@H](Cc1ccccc1)NC(=O)[C@H](N)Cc1ccccc1)C(=O)N[C@H](CCCCN)C(=O)N1CCC(N)(C(=O)O)CC1 [CR-845] 0.388

###

Recorded EC50 by entry
Molecular target: human κ-opioid receptor (Homo sapiens)
Experiment: Agonist activity on human κ-opioid receptors (inhibition of forskolin-stimulated cAMP release, TR-FRET)
Conditions: OPRK1 cells (DiscoveRx)
Description: Test 1: Agonist Activity on Human κ-Opioid Receptors Forskolin can stimulate the release of cAMP from a human κ-opioid receptor-overexpressing cell line, OPRK1 cells (DiscoveRx), and κ-opioid receptor agonists can inhibit the cAMP release stimulated by forskolin. By detecting the inhibitory effect of the test compound on the cAMP release stimulated by forskolin, the agonistic activity of the compound on the human κ-opioid receptor can be determined. […]
# value in nM; strip the unit string

Solved entries:
CC(=O)N1CCC2(C1)CN(C(=O)[C@@H](CCCCN)NC(=O)[C@@H](CC(C)C)NC(=O)[C@@H](Cc1ccccc1)NC(=O)[C@H](N)Cc1ccccc1)C2 = 0.071
CC(C)C[C@@H](NC(=O)[C@@H](Cc1ccccc1)NC(=O)[C@H](N)Cc1ccccc1)C(=O)N[C@H](CCCCN)C(=O)N1CCC2(CC1)CN(C(=O)[C@@H](C)N)C2 = 0.00919
CC(C)C[C@@H](NC(=O)[C@@H](Cc1ccccc1)NC(=O)[C@H](N)Cc1ccccc1)C(=O)N[C@H](CCCCN)C(=O)N1CC2(CCN(C(=O)[C@@H](C)N)CC2(F)F)C1 = 0.044

# returns recorded EC50 (system: human κ-opioid receptor (Homo sapiens)) for CC(C)C[C@@H](NC(=O)[C@@H](Cc1ccccc1)NC(=O)[C@H](N)Cc1ccccc1)C(=O)N[C@H](CCCCN)C(=O)N1CCC2(CC1)CC(N1CCCCC1)C2 0.023

###

Entries and their pEC50
biological target: human κ-opioid receptor (Homo sapiens, UniProt P41145); experiment: Agonist activity on human κ-opioid receptors (inhibition of forskolin-stimulated cAMP release, TR-FRET); conditions: OPRK1 cells (DiscoveRx)
For clarity, pEC50 is expressed as the negative log10 of concentration in mol/L.

Example cases with answers are listed next.
CC(C)C[C@@H](NC(=O)[C@@H](Cc1ccccc1)NC(=O)[C@H](N)Cc1ccccc1)C(=O)N[C@H](CCCCN)C(=O)N1CC2(C1)CC1(CNC(=O)C1)C2 [Compound 4] = 10.80
CC(C)C[C@@H](NC(=O)[C@@H](Cc1ccccc1)NC(=O)[C@H](N)Cc1ccccc1)C(=O)N[C@H](CCCCN)C(=O)N1CCC2(CC1)CN(C(=O)N1CC(S(C)(=O)=O)C1)C2 [Compound 14, di-trifluoroacetic acid] = 10.81

Moving on to the next compound.
Any idea what pEC50 came out for CC(=O)N1CCC2(CCN(C(=O)[C@@H](CCCCN)NC(=O)[C@@H](CC(C)C)NC(=O)[C@@H](Cc3ccccc3)NC(=O)[C@H](N)Cc3ccccc3)C2)C1 (stereo partly drawn) [Compound 31, di-trifluoroacetic acid] on human κ-opioid receptor (Homo sapiens, UniProt P41145)? 10.87
